Taken from patent US10907134B2.

Test system: CHO-K1 cells
Test: Luminescence activity of KAZ mutants expressed in animal culture cells without secretional signal peptide sequence
Type: cell-based, Chinese hamster
Details: vectors without a secretion signal; CHO-K1; coelenterazine
experimental_readout: Luminescence activity in the cell extracts, fold higher than wild KAZ (fold)

INSERT INTO assay_data (molecule, reported_value) VALUES
  ('KAZ-V44I-A54I-Y138I: KAZ mutant with three amino acid substitutions V44I, A54I and Y138I, SEQ ID NO: 16 (protein) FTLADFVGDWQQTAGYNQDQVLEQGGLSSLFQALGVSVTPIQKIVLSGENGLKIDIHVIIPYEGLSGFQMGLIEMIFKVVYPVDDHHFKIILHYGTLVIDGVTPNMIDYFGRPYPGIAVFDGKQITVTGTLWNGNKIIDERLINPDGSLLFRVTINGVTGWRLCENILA', 56),
  ('KAZ-Y138I: KAZ with single amino acid substitution Y138I, SEQ ID NO: 8 (protein) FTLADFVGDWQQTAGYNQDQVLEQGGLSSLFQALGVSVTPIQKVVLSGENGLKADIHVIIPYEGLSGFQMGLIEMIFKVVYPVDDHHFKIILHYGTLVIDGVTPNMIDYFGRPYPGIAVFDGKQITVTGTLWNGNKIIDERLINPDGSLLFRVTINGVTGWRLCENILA', 6.4),
  ('KAZ-A54I-Y138I: KAZ mutant with two amino acid substitutions A54I and Y138I, SEQ ID NO: 14 (protein) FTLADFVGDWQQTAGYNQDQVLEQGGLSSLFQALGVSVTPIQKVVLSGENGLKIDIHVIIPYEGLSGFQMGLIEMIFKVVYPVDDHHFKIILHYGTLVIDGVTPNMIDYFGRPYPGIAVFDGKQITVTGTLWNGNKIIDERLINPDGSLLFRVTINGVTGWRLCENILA', 22);
